Cited source: PubChem BioAssay

run-description: JHH-DIPG-1 glioma cell viability, MIPE5.0 library, CellTiter-Glo luminescence, qHTS (AID 1347067);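 note: cells exposed to compound for 48 hours before readout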
condition-parameters: JHH-DIPG-1 glioma viability, CellTiter-Glo ATP luminescence
Inconclusive results are not listed. Calls of active or inactive are those of the source. No cut-off is given here; in the data, nearly all actives have AC50 up to about 26 µM.
Please state which outcome applies, choosing from true (1) = active, false (0) = inactive

O=C(O)C(=O)Nc1cccc(-c2nn[nH]n2)c1 : false (0)
NC(=O)c1cccc(N)c1 : false (0)
CC1=C(/C=C/C(C)=C/C=C/C(C)=C\C(=O)O)C(C)(C)CCC1 : false (0)

Turning now to a further record.
Lookup: // param item: Clc1ccc(Nc2nnc(Cc3ccncc3)c3ccccc23)cc1 ; yields the recorded call
Found: true (1)

* * *

run-description: stimulators of nuclear beta-catenin in C2C12, primary screen, imaging, WNT3A-conditioned medium, mouse C2C12, NPC library (AID 1117326)
condition-parameters: at 10 µM, stronger effect = higher value
experimental-endpoint: nuclear beta-catenin stimulation (%)
Give bare numbers, in %.

CCCCc1oc2ccc(NS(C)(=O)=O)cc2c1C(=O)c1ccc(OCCCN(CCCC)CCCC)cc1 : -3.1
CCOc1nc2cccc(C(=O)O)c2n1Cc1ccc(-c2ccccc2-c2nn[nH]n2)cc1 : -1.9
CC(=O)Nc1ncc([N+](=O)[O-])s1 : -0.3
COc1nc(N)nc2c1ncn2[C@@H]1O[C@H](CO)[C@@H](O)[C@@H]1O : 2.7

Lookup: Supply recorded nuclear beta-catenin stimulation for Clc1ccc(Cn2c(CN3CCCC3)nc3ccccc32)cc1 here.
Found: 3.1

* * *

run-description: ovarian cancer cell viability with rucaparib, profiling panel, oncology-focused library, rucaparib conditional (AID 1508598)
condition-parameters: patient-derived ovarian cancer cells, CellTiter-Glo viability, 144 h; at 0.0195 µM; OCI-P5x cells; with rucaparib 20 µM; 100% = cells with rucaparib alone
Activity calls are given as the source filed them.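 Rule for the calls: active = normalized viability below 100% at a tested concentration; inactive = the rest.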
Hi! Could you answer with just one of these? 1 (active), -1 (inactive)

Lookup: For O=C(CCc1ccc(O)cc1)c1c(O)cc(O)cc1O , what call appears in the results of this test?
Found: -1

Lookup: Per the records of this test, what outcome belongs to CC/C(=C(\c1ccccc1)c1ccc(OCCN(C)C)cc1)c1ccccc1 ?
Found: 1

Lookup: Could you kindly confirm the outcome this assay logged for CC(C)C[C@H](NC(=O)[C@H](Cc1ccccc1)NC(=O)c1cnccn1)B(O)O ?
Found: 1

Lookup: Called result for FC(F)c1nc2ccccc2n1-c1nc(N2CCOCC2)nc(N2CCOCC2)n1
Found: 1

Lookup: Could you check what this test reported for Clc1ccc(Nc2nnc(Cc3ccncc3)c3ccccc23)cc1 ?
Found: -1

Lookup: Dear all, I need the recorded test outcome for O=C(NOCC1CC1)c1ccc(F)c(F)c1Nc1ccc(I)cc1Cl , thank you.
Found: -1

Lookup: I'd appreciate the recorded outcome for COc1cc(Nc2c(C#N)cnc3cc(OCCCN4CCN(C)CC4)c(OC)cc23)c(Cl)cc1Cl from this test.
Found: 1

Lookup: What is the recorded call for this compound in the test? COc1c(C)c2c(c(O)c1C/C=C(\C)CCC(=O)O)C(=O)OC2
Found: 1

Lookup: How did this test come out for Cc1ccc(Nc2nccc(N(C)c3ccc4c(C)n(C)nc4c3)n2)cc1S(N)(=O)=O ?
Found: 1

Lookup: Which result was noted for this compound in the test: COc1cc2ncnc(Nc3ccc(F)c(Cl)c3)c2cc1OCCCN1CCOCC1
Found: 1

Lookup: // return assay outcome for O=C(CCCCCCC(=O)Nc1ccccc1)NO
Found: -1

Lookup: Test call for this compound, please: CCCC(CCC)C(=O)O
Found: -1

Lookup: In this assay, the call recorded for Nc1cccc2c1CN(C1CCC(=O)NC1=O)C2=O (centres undefined) was what?
Found: -1

Lookup: Dear all, I need the recorded test outcome for O=C(O[C@@H]1Cc2c(O)cc(O)cc2O[C@@H]1c1cc(O)c(O)c(O)c1)c1cc(O)c(O)c(O)c1 , thank you.
Found: 1
